All figures here come from patent US9365522B2.

# target: ligand binding domain of human ROR gamma (Homo sapiens)
# Construct: NM_001001523; expressed in transfected cells; host or cells: HEK293T
# experiment summary: ROR gamma reporter gene assay (GAL4-RORγ LBD luciferase, Dual-Glo)
# Assay type: cell-based
# test settings: HEK293T cells transfected with pM-ROR gamma, 8 concentrations 3.5 nM to 10.5 μM, 24 h incubation; read-out: result (pIC50, inhibition of RORγ transcriptional activity) (converted)
Kindly apply the following: True if IC50 is less than 300000 pM, False in every other case.

Would you please look over these solved cases?
- O=C(CN(Cc1ccc(Cl)cc1)C(=O)c1cnn([C@H]2CC[C@H](C(=O)O)CC2)c1C(F)(F)F)c1c(Cl)cncc1Cl: True
- N[C@]1(C(=O)O)CC[C@H](n2ncc(C(=O)N(CC(=O)c3c(Cl)cncc3Cl)Cc3ccc(F)cc3)c2C(F)(F)F)CC1: False
- O=C(CN(CC12CCC(CC1)O2)C(=O)c1cnn([C@H]2CC[C@H](C(=O)O)CC2)c1C(F)(F)F)c1c(Cl)cncc1Cl: True

A record lists O=C(CN(Cc1cnccn1)C(=O)c1cnn([C@H]2CC[C@H](C(=O)O)CC2)c1C(F)(F)F)c1c(Cl)cncc1Cl . Is its IC50 below 300000 pM?
False

Hello, is IC50 of the following compound strictly smaller than 300000 pM? O=C(CN(Cc1ccc(F)c(F)c1)C(=O)c1cnn([C@H]2CC[C@H](C(=O)O)CC2)c1C(F)(F)F)c1c(Cl)cncc1Cl
True

* * *

Listed below: IC50 values for each entry.
# target: ligand binding domain of human ROR gamma (Homo sapiens)
# Construct: NM_001001523; expressed in transfected cells; host or cells: HEK293T
# Sequence (P51449 247-497 isoform P51449-2): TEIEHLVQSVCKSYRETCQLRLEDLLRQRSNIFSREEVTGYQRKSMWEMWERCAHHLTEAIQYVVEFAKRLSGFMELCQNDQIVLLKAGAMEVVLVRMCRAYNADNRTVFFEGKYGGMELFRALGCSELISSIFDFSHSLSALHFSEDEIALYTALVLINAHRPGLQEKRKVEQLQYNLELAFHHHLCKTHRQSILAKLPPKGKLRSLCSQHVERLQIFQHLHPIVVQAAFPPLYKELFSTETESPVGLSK
# experiment summary: ROR gamma reporter gene assay (GAL4-RORγ LBD luciferase, Dual-Glo)
# Assay type: cell-based
# test settings: HEK293T cells transfected with pM-ROR gamma, 8 concentrations 3.5 nM to 10.5 μM, 24 h incubation; read-out: result (pIC50, inhibition of RORγ transcriptional activity) (converted)
Express it in pM; write the number only.

Below are worked cases with known answers.
* CC(C)(C)CN(CC(=O)c1c(F)cncc1Cl)C(=O)c1cnn([C@H]2CC[C@](C)(C(=O)O)CC2)c1C(F)(F)F | 49000
* COc1cccc(Cl)c1C(O)CN(C(=O)c1cnn([C@H]2CC[C@](C)(C(=O)O)CC2)c1C(F)(F)F)C1CCC(C)(C)CC1 (stereo partly drawn) | 145000

Please tell me: IC50 of CC(C)(C)C#CCN(CC(=O)c1c(Cl)cc(Cl)cc1Cl)C(=O)c1cnn([C@H]2CC[C@](C)(C(=O)O)CC2)c1C(F)(F)F , system ligand binding domain of human ROR gamma (Homo sapiens)?
63100

Give recorded IC50 with ligand binding domain of human ROR gamma (Homo sapiens) for the following compound: CC1(C)[C@@H]2C[C@H](N(CC(O)c3ccsc3Cl)C(=O)c3cnn([C@H]4CC[C@](C)(C(=O)O)CC4)c3C(F)(F)F)C[C@@H]21 (stereo partly drawn)
224000

# value lookup — system ligand binding domain of human ROR gamma (Homo sapiens), readout IC50, item NC(=O)c1cc(Cl)c(C(=O)CN(Cc2cc(F)cc(F)c2)C(=O)c2cnn([C@H]3CC[C@H](C(=O)O)CC3)c2C(F)(F)F)c(Cl)c1
282000

Observed IC50 on ligand binding domain of human ROR gamma (Homo sapiens) for O=C(CN(Cc1cccc(F)c1F)C(=O)c1cnn([C@H]2CC[C@H](C(=O)O)CC2)c1C(F)(F)F)c1c(Cl)cncc1Cl , please.
33900

# value lookup — system ligand binding domain of human ROR gamma (Homo sapiens), readout IC50, item CC1(C)CC[C@H](CN(CC(=O)c2c(Cl)cncc2Cl)C(=O)c2cnn([C@H]3CC[C@H](C(=O)O)CC3)c2C(F)(F)F)O1
117000

So what IC50 did O=C(CN(Cc1ccccc1O)C(=O)c1cnn([C@H]2CC[C@H](C(=O)O)CC2)c1C(F)(F)F)c1c(Cl)cncc1Cl get with ligand binding domain of human ROR gamma (Homo sapiens)?
347000
